- System: HepG2
- Protocol Notes: Antiproliferative activity against human HepG2 cells assessed as reduction in cell viability incubated for 24 hrs by MTT assay
- Type: functional, cell-based
- Condition Summary: HepG2, 24 h
Measured Endpoint: pIC50
Answers are plain numbers, as −log10 of the molar value.

Cc1ccc(-n2c(SCC(=O)Nc3ccc(C(=O)NNC(=O)c4ccccc4O)cc3)nc3ccccc3c2=O)cc1: 4.93

Batch: pIC50 for all items listed.
1. Cc1ccc(-n2c(SCC(=O)Nc3ccc(S(=O)(=O)Nc4ccccn4)cc3)nc3ccccc3c2=O)cc1
2. CCOC(=O)c1ccc(NC(=O)c2ccc(NC(=O)CSc3nc4ccccc4c(=O)n3-c3ccc(C)cc3)cc2)cc1
3. CC(=O)c1ccc(NC(=O)CSc2nc3ccccc3c(=O)n2-c2ccc(C)cc2)cc1

Data returned:
1: 4.52; 2: 4.67; 3: 4.91

Batch: pIC50 for all items listed.
1. CC(=O)NS(=O)(=O)c1ccc(NC(=O)CSc2nc3ccccc3c(=O)n2-c2ccc(C)cc2)cc1
2. C/C(=N\NC(=O)c1cccc(Cl)c1)c1ccc(NC(=O)CSc2nc3ccccc3c(=O)n2-c2ccc(C)cc2)cc1
3. C/C(=N\NC(=O)c1ccccc1O)c1ccc(NC(=O)CSc2nc3ccccc3c(=O)n2-c2ccc(C)cc2)cc1
4. Cc1ccc(-n2c(SCC(=O)Nc3ccc(C(=O)NCc4ccccc4)cc3)nc3ccccc3c2=O)cc1

Data returned:
1: 5.38; 2: 4.47; 3: 4.92; 4: 4.76

---

- System: MCF7
- Protocol Notes: Antiproliferative activity against human MCF7 cells assessed as reduction in cell viability incubated for 24 hrs by MTT assay
- Format: functional, cell-based
- Condition Summary: MCF7, 24 h
Field: pIC50. Provide a value for each of the molecules that follow.
One number for each entry, as −log10 of the molar value.

CC(=O)c1ccc(NC(=O)CSc2nc3ccccc3c(=O)n2-c2ccc(C)cc2)cc1: 4.87
C/C(=N\NC(=O)c1ccc(Cl)cc1)c1ccc(NC(=O)CSc2nc3ccccc3c(=O)n2-c2ccc(C)cc2)cc1: 4.36
Cc1ccc(-n2c(SCC(=O)Nc3ccc(C(=O)Nc4ccc(Cl)cc4)cc3)nc3ccccc3c2=O)cc1: 5.22

Data request: Sample Cc1ccc(-n2c(SCC(=O)Nc3ccc(C(=O)Nc4ccccc4)cc3)nc3ccccc3c2=O)cc1 — what was its pIC50?
Data returned: 4.57

---

- Tested on: HepG2
- Protocol Notes: Antiproliferative activity against human HepG2 cells assessed as reduction in cell viability incubated for 24 hrs by MTT assay
- Assay type: functional, cell-based
- Condition Summary: HepG2, 24 h
Field: IC50. Provide a value for each of the compounds that follow.
Give bare numbers, in µM.

Observe how each entry below is paired with its result.
C/C(=N\NC(N)=S)c1ccc(NC(=O)CSc2nc3ccccc3c(=O)n2-c2ccc(C)cc2)cc1: 8.38
CNC(=O)c1cc(Oc2ccc(NC(=O)Nc3ccc(Cl)c(C(F)(F)F)c3)cc2)ccn1: 7.31
C/C(=N\NC(=O)c1ccc(Cl)cc1)c1ccc(NC(=O)CSc2nc3ccccc3c(=O)n2-c2ccc(C)cc2)cc1: 41.6

Data request: Recorded IC50 for C/C(=N\NC(=O)c1ccccc1)c1ccc(NC(=O)CSc2nc3ccccc3c(=O)n2-c2ccc(C)cc2)cc1 with HepG2, please?
Data returned: 30.5

---

As a worked illustration, we turn to IC50 data collected for Vascular endothelial growth factor receptor 2 (Homo sapiens, UniProt P35968).
Numbers only, in nM.

C/C(=N\NC(=O)c1ccccc1O)c1ccc(NC(=O)CSc2nc3ccccc3c(=O)n2-c2ccc(C)cc2)cc1: 1060
C/C(=N\NC(=O)c1cc([N+](=O)[O-])ccc1Cl)c1ccc(NC(=O)CSc2nc3ccccc3c(=O)n2-c2ccc(C)cc2)cc1: 452

Batch: IC50 for all items listed.
1. Cc1ccc(-n2c(SCC(=O)Nc3ccc(C(=O)NNC(=O)c4ccccc4O)cc3)nc3ccccc3c2=O)cc1
2. CC(=O)NS(=O)(=O)c1ccc(NC(=O)CSc2nc3ccccc3c(=O)n2-c2ccc(C)cc2)cc1
3. CC(=O)c1ccc(NC(=O)CSc2nc3ccccc3c(=O)n2-c2ccc(C)cc2)cc1
4. Cc1ccc(-n2c(SCC(=O)Nc3ccc(C(=O)NNc4ccccc4)cc3)nc3ccccc3c2=O)cc1
5. C/C(=N\NC(N)=S)c1ccc(NC(=O)CSc2nc3ccccc3c(=O)n2-c2ccc(C)cc2)cc1

Data returned:
1: 1070; 2: 721; 3: 1780; 4: 1210; 5: 1000

---

Field: pIC50. Provide a value for each of the compounds that follow.
- Test system: HepG2
- Protocol Notes: Antiproliferative activity against human HepG2 cells assessed as reduction in cell viability incubated for 24 hrs by MTT assay
- Format: functional, cell-based
- Condition Summary: HepG2, 24 h
Numbers only, as −log10 of the molar value.

Observe how each entry below is paired with its result.
Cc1ccc(-n2c(SCC(=O)Nc3ccc(C(=O)Nc4ccc(Cl)cc4)cc3)nc3ccccc3c2=O)cc1: 5.39
C/C(=N\NC(=O)c1ccccc1Cl)c1ccc(NC(=O)CSc2nc3ccccc3c(=O)n2-c2ccc(C)cc2)cc1: 4.65
Cc1ccc(NC(=O)c2ccc(NC(=O)CSc3nc4ccccc4c(=O)n3-c3ccc(C)cc3)cc2)cc1: 4.72
Cc1ccc(-n2c(SCC(=O)Nc3ccc(C(=O)NNc4ccccc4)cc3)nc3ccccc3c2=O)cc1: 4.92

Batch: pIC50 for all items listed.
1. Cc1ccc(-n2c(SCC(=O)Nc3ccc(S(=O)(=O)Nc4nc(C)cc(C)n4)cc3)nc3ccccc3c2=O)cc1
2. Cc1ccc(-n2c(SCC(=O)Nc3ccc(C(=O)NC4CCCCC4)cc3)nc3ccccc3c2=O)cc1
3. C/C(=N\NC(=O)c1cc([N+](=O)[O-])ccc1Cl)c1ccc(NC(=O)CSc2nc3ccccc3c(=O)n2-c2ccc(C)cc2)cc1
4. Cc1ccc(-n2c(SCC(=O)Nc3ccc(C(=O)Nc4ccccc4)cc3)nc3ccccc3c2=O)cc1

Data returned:
1. 5.17
2. 4.78
3. 5.73
4. 4.66

---

Field: IC50. Provide a value for each of the compounds that follow.
- System: MCF7
- Protocol Notes: Antiproliferative activity against human MCF7 cells assessed as reduction in cell viability incubated for 24 hrs by MTT assay
- Assay type: functional, cell-based
- Condition Summary: MCF7, 24 h
Numbers only, in µM.

Observe how each entry below is paired with its result.
Cc1ccc(-n2c(SCC(=O)Nc3ccc(C(=O)NNC(=O)c4ccccc4O)cc3)nc3ccccc3c2=O)cc1: 14.4
C/C(=N\NC(=O)c1ccccc1O)c1ccc(NC(=O)CSc2nc3ccccc3c(=O)n2-c2ccc(C)cc2)cc1: 15.4
C/C(=N\NC(N)=S)c1ccc(NC(=O)CSc2nc3ccccc3c(=O)n2-c2ccc(C)cc2)cc1: 9.89
Cc1ccc(-n2c(SCC(=O)Nc3ccc(C(=O)NCc4ccccc4)cc3)nc3ccccc3c2=O)cc1: 18.3
CCOC(=O)c1ccc(NC(=O)c2ccc(NC(=O)CSc3nc4ccccc4c(=O)n3-c3ccc(C)cc3)cc2)cc1: 23.7

Batch: IC50 for all items listed.
1. Cc1ccc(-n2c(SCC(=O)Nc3ccc(C(=O)NC4CCCCC4)cc3)nc3ccccc3c2=O)cc1
2. Cc1ccc(-n2c(SCC(=O)Nc3ccc(S(=O)(=O)Nc4ccccn4)cc3)nc3ccccc3c2=O)cc1
3. Cc1ccc(NC(=O)c2ccc(NC(=O)CSc3nc4ccccc4c(=O)n3-c3ccc(C)cc3)cc2)cc1

Data returned:
1. 24.9
2. 30.6
3. 28.4

Batch: IC50 for all items listed.
1. CNC(=O)c1cc(Oc2ccc(NC(=O)Nc3ccc(Cl)c(C(F)(F)F)c3)cc2)ccn1
2. C/C(=N\NC(=O)c1cc([N+](=O)[O-])ccc1Cl)c1ccc(NC(=O)CSc2nc3ccccc3c(=O)n2-c2ccc(C)cc2)cc1
3. Cc1ccc(-n2c(SCC(=O)Nc3ccc(C(=O)NNc4ccccc4)cc3)nc3ccccc3c2=O)cc1
4. CC(=O)NS(=O)(=O)c1ccc(NC(=O)CSc2nc3ccccc3c(=O)n2-c2ccc(C)cc2)cc1
5. Cc1ccc(-n2c(SCC(=O)Nc3ccc(S(=O)(=O)Nc4nc(C)cc(C)n4)cc3)nc3ccccc3c2=O)cc1
6. C/C(=N\NC(=O)c1ccccc1Cl)c1ccc(NC(=O)CSc2nc3ccccc3c(=O)n2-c2ccc(C)cc2)cc1

Data returned:
7.21
3.91
16.1
6.79
7.1
23

Batch: IC50 for all items listed.
1. C/C(=N\NC(=O)c1ccccc1)c1ccc(NC(=O)CSc2nc3ccccc3c(=O)n2-c2ccc(C)cc2)cc1
2. C/C(=N\NC(=O)c1cccc(Cl)c1)c1ccc(NC(=O)CSc2nc3ccccc3c(=O)n2-c2ccc(C)cc2)cc1

Data returned:
1: 35.9; 2: 40.9

---

- Test system: HCT-116
- Protocol Notes: Antiproliferative activity against human HCT-116 cells assessed as reduction in cell viability incubated for 24 hrs by MTT assay
- Format: functional, cell-based
- Condition Summary: HCT-116, 24 h
Field: label. Allowed values: 1.0 (IC50 < 10 µM) or 0.0 (IC50 >= 10 µM).

C/C(=N\NC(=O)c1ccccc1O)c1ccc(NC(=O)CSc2nc3ccccc3c(=O)n2-c2ccc(C)cc2)cc1: 0.0
C/C(=N\NC(=O)c1ccc(Cl)cc1)c1ccc(NC(=O)CSc2nc3ccccc3c(=O)n2-c2ccc(C)cc2)cc1: 0.0

Data request: Is it true that IC50 reported for CNC(=O)c1cc(Oc2ccc(NC(=O)Nc3ccc(Cl)c(C(F)(F)F)c3)cc2)ccn1 [SORAFENIB] is less than 10 µM?
Data returned: 1.0
